target: 5-hydroxytryptamine receptor 6 (Homo sapiens); settings: Compound concentration 10 µM; call rule not given here
The reply should name one outcome from Yes (active), No (inactive)

Recorded results for 5 molecules are shown here.
{"Molecule": "CN(C)S(=O)(=O)c1ccc(NC(=S)N2CCC(C(O)(c3ccccc3)c3ccccc3)CC2)cc1", "Category": "No"}
{"Molecule": "COC(=O)C1=C(C)NC(C)=C(C(=O)OCCCN2CCC(c3ccccc3)(c3ccccc3)CC2)[C@H]1c1cccc([N+](=O)[O-])c1", "Category": "Yes"}
{"Molecule": "CN1CCC(=C2c3ccccc3CC(=O)c3sccc32)CC1", "Category": "Yes"}
{"Molecule": "CC[C@@H]1CN2C(=O)N(C)c3nc(-c4ccccc4)[nH]c3C2=N1", "Category": "No"}
{"Molecule": "CCCSc1nc(N[C@@H]2C[C@H]2c2ccc(F)c(F)c2)c2nnn([C@@H]3C[C@H](OCCO)[C@@H](O)[C@H]3O)c2n1", "Category": "No"}

Recorded test outcome, item C=CCN1C[C@H](C)N([C@H](c2ccc(C(=O)N(CC)CC)cc2)c2cccc(O)c2)C[C@H]1C
No

Recorded test outcome, item CC(C)(N)C(=O)N[C@H](COCc1ccccc1)C(=O)N1CCC2(CC1)CN(S(C)(=O)=O)c1ccccc12
No

Recorded test outcome, item NC[C@@H]1O[C@H](C23CC4CC(CC(C4)C2)C3)Cc2c1ccc(O)c2O
No

Recorded test outcome, item CCCCCCCCCCCCCCCCOC[C@H](COP(=O)([O-])OCC[N+](C)(C)C)OC(C)=O
No

* * *

Would you kindly list inhibition for each of these compounds?
molecular target: Translocator protein (Homo sapiens); details: Compound concentration 10 µM
Description: PDSP Primary Binding target: TSPO - Compounds are tested at 10 uM concentration, plate are incubated at room temperature in the dark for 90 minutes. Reaction are stopped by vacuum filtration onto 0.3% polyethyleneimine soaked filter mats using Filtermate harvester. Scintilation cocktail is then melted onto microwave-dried filters on a hot plate and the radio activity is counted in Microbia counter.
Numbers only, in %.

{"Chemical string": "CNC[C@H](O)c1cccc(O)c1", "inhibition, %": 11.8}

For each of the compounds below, note its inhibition.
1. Oc1ccc2c3c1O[C@H]1c4[nH]c5c(c4C[C@@]4(O)[C@@H](C2)N(CC2CC2)CC[C@]314)C[C@@]1(O)[C@H]2Cc3ccc(O)c4c3[C@@]1(CCN2CC1CC1)[C@H]5O4
2. Cc1cc([C@@H](C)Nc2cccc(-c3cc(C)c(C(=O)N[C@@H](C)C(=O)O)c(C)c3)c2)ccc1Cl
3. COc1cccc([C@H](O)C2CCN(CCc3ccc(F)cc3)CC2)c1OC
4. C[C@H](Cc1cc2c(c(C(N)=O)c1)N(CCCO)CC2)NCCOc1ccccc1OCC(F)(F)F
5. Cc1c(C(=O)NC2CCCCC2)sc2nc3ccc(N)cc3n12

1: 21.5; 2: 62.7; 3: -6.18; 4: 2.96; 5: -2.67

For each of the compounds below, note its inhibition.
1. CSc1ccc(C(=O)N[C@@H]2CCCC[C@@H]2NC(=O)CNC(=O)c2cc(C(F)(F)F)ccc2NC(=O)NC(C)C)cc1
2. CC(C)Oc1ccccc1C(=O)Nc1ccccc1C(=O)Nc1cccc(S(=O)(=O)C(F)(F)F)c1

46.9
66.1

Short answer for COC1CCN(c2cccc(-c3cc(NC(C)=O)nc(-n4nc(C)cc4C)n3)n2)CC1 : inhibition was 70.3

* * *

target: Alpha-1B adrenergic receptor (Homo sapiens) (UniProt P35368); conditions: Compound concentration 10 µM; call rule not given here
Sequence (P35368 whole entry): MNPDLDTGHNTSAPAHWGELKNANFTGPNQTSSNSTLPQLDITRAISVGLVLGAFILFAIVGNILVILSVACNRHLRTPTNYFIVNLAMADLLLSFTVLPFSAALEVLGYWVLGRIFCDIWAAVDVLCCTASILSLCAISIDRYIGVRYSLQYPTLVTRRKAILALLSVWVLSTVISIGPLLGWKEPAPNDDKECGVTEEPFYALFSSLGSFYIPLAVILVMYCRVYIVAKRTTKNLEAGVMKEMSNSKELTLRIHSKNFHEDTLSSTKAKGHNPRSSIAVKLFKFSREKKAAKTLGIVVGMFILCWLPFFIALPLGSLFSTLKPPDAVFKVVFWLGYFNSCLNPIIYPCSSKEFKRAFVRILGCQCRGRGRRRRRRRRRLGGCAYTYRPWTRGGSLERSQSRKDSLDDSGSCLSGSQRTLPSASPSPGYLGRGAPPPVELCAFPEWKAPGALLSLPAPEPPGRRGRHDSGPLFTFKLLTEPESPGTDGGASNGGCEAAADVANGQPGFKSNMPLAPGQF
The reply should name one outcome from Yes = active, No = inactive

Recorded results for 3 compounds are shown here.
{"Chemical string": "CN1C(=O)[C@@H](NC(=O)c2cc3ccccc3[nH]2)N=C(c2ccccc2)c2ccccc21", "Category": "No"}
{"Chemical string": "Cc1nc(-c2ccc(C(F)(F)F)cc2)sc1COc1ccc([C@H](CC(=O)O)c2ccon2)cc1", "Category": "Yes"}
{"Chemical string": "CN[C@@H]1CCc2[nH]c3ccc(C(N)=O)cc3c2C1", "Category": "Yes"}

Recorded test outcome, item Cc1cc(C)cc(-c2cnc3cc(Cl)c(-c4cccc(O)c4)cc3c2OCCCN)c1
Yes

Recorded test outcome, item Clc1ccc(CCCOCCCN2CCCCC2)cc1
No

Recorded test outcome, item Cc1ccc2c(c1)c1c(n2CCc2ccc(C)nc2)CCN(C)C1
Yes

Recorded test outcome, item N[C@H](C(=O)O)c1ccc(C(=O)O)c(C(=O)O)c1
No

* * *

Would you kindly list inhibition for each of these compounds?
target: D(1B) dopamine receptor (Homo sapiens); conditions: Compound concentration 10 µM
Description: PDSP Primary Binding target: DRD5 - Compounds are tested at 10 uM concentration, plate are incubated at room temperature in the dark for 90 minutes. Reaction are stopped by vacuum filtration onto 0.3% polyethyleneimine soaked filter mats using Filtermate harvester. Scintilation cocktail is then melted onto microwave-dried filters on a hot plate and the radio activity is counted in Microbia counter.
Numbers only, in %.

// below: answered compounds
{"Compound": "CCC(=O)NCC[C@@H]1CCc2ccc3c(c21)CCO3", "Test value": -3.26}
{"Compound": "O=C(Cc1ccc(Cl)c(Cl)c1)N1CCCC[C@H]1CN1CCCC1", "Test value": -9.99}
{"Compound": "CN1CCCC(n2nc(Cc3ccc(Cl)cc3)c3ccccc3c2=O)CC1 (stereo not given)", "Test value": 24.1}
{"Compound": "CC1(C)SSC(C)(C)[C@@H](NC(=O)[C@@H](N)Cc2ccc(O)cc2)C(=O)NCC(=O)N[C@@H](Cc2ccccc2)C(=O)N[C@H]1C(=O)O", "Test value": 3.84}

Shifting focus to the compound that follows.
Short answer for Cc1cccc([C@H](C)c2c[nH]cn2)c1C : inhibition was 11.4

* * *

molecular target: UniProtKB P28566; conditions: Compound concentration 10 µM
Sequence (P28566 whole entry): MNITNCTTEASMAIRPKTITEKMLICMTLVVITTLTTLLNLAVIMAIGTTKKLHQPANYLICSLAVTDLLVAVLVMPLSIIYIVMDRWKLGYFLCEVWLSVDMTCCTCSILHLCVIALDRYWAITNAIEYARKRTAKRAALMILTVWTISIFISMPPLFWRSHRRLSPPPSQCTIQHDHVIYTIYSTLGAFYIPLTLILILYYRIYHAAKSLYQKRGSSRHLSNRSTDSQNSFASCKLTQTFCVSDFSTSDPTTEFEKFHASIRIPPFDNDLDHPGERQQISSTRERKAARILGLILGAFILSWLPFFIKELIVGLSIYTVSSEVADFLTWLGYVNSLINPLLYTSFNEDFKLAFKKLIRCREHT
Description: PDSP Primary Binding target: HTR1E - Compounds are tested at 10 uM concentration, plate are incubated at room temperature in the dark for 90 minutes. Reaction are stopped by vacuum filtration onto 0.3% polyethyleneimine soaked filter mats using Filtermate harvester. Scintilation cocktail is then melted onto microwave-dried filters on a hot plate and the radio activity is counted in Microbia counter.
Reported metric: inhibition (%)
Give bare numbers, in %.

// below: answered molecules
{"Chemical string": "Cc1c(P(=S)(c2ccccc2)c2ccccc2)n2ccccc2[n+]1C/C=C/c1ccccc1", "Reported metric": "inhibition", "Test value": 1.99}
{"Chemical string": "Cc1c(C2=CCN(C(=O)N(C)C(C)C)CC2)nnn1-c1cccnc1F", "Reported metric": "inhibition", "Test value": 20.2}
{"Chemical string": "CCc1cc2c(cc1CC)CC(NC[C@H](O)c1ccc(O)c3[nH]c(=O)ccc13)C2", "Reported metric": "inhibition", "Test value": -6.64}
{"Chemical string": "Cc1cc(NC(=O)NCCN2CCC(O)(Cc3ccccc3)CC2)c2ccccc2n1", "Reported metric": "inhibition", "Test value": 5.03}

For each of the molecules below, note its inhibition.
1. O=C(O)COc1cccc(CN(Cc2ccc(-n3cccn3)cc2)S(=O)(=O)c2cccnc2)c1
2. COc1cc2c(CCNC(C)=O)c[nH]c2cc1Cl

1. 14.9
2. 16.3

* * *

target: D(2) dopamine receptor (Homo sapiens) (UniProt P14416); conditions: Compound concentration 10 µM
Sequence (P14416 whole entry): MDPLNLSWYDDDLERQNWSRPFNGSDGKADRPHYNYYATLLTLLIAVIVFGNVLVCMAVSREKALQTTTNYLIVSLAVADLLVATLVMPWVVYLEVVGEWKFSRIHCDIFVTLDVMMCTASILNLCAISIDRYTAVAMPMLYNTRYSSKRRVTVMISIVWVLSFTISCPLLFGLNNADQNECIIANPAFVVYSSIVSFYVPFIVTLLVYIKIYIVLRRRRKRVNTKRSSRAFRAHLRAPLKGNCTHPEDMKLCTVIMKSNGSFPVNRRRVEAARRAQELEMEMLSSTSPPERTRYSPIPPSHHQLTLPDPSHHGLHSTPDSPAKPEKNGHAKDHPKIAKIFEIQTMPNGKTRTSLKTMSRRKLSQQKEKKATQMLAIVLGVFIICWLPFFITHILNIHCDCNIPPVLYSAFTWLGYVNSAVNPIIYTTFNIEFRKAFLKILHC
Description: PDSP Primary Binding target: DRD2 - Compounds are tested at 10 uM concentration, plate are incubated at room temperature in the dark for 90 minutes. Reaction are stopped by vacuum filtration onto 0.3% polyethyleneimine soaked filter mats using Filtermate harvester. Scintilation cocktail is then melted onto microwave-dried filters on a hot plate and the radio activity is counted in Microbia counter.
Reported metric: inhibition (%)
One number for each entry, in %.

{"Compound": "COc1ccc(Br)cc1S(=O)(=O)NC(=O)/C=C/c1ccccc1Cc1ccc2ccccc2c1", "Test value": 29.3}
{"Compound": "CS(=O)(=O)NC[C@H]1CC[C@H](Nc2nc3c(s2)CCSc2ccccc2-3)CC1", "Test value": 4.83}
{"Compound": "OC[C@H]1O[C@@H](n2cnc3c(NC4CCCC4)ncnc32)[C@H](O)[C@@H]1O", "Test value": 25}
{"Compound": "Nc1nc(NCCc2ccc(O)cc2)nc2nc(-c3ccco3)nn12", "Test value": 40}
{"Compound": "O=C(c1cc2c(cc1F)OC(c1ccc(F)cc1)(c1ccc(Cl)cc1Cl)O2)N1CCOCC1 (stereo not given)", "Test value": 5.49}

For each of the compounds below, note its inhibition.
1. COc1ccccc1CN[C@H]1C2CCN(CC2)[C@H]1C(c1ccccc1)c1ccccc1
2. COc1cc2nc(N3CCN(C(=O)c4ccco4)CC3)nc(N)c2cc1OC
3. Cc1cn2cc(CC(=O)N3CCC4(CC3)CN(Cc3ccc(-n5nccn5)cc3Cl)C4)nc2s1
4. N#Cc1ccc2[nH]cc(CCCCN3CCN(c4ccc5oc(C(N)=O)cc5c4)CC3)c2c1
5. Cc1cc(NC(=O)NCCN2CCC(O)(Cc3ccccc3)CC2)c2ccccc2n1

1. 9.32
2. 49.2
3. 25.1
4. 79.4
5. 65.3

* * *

biological target: Sodium-dependent dopamine transporter (Homo sapiens) (UniProt Q01959); settings: Compound concentration 10 µM
Sequence (Q01959 whole entry): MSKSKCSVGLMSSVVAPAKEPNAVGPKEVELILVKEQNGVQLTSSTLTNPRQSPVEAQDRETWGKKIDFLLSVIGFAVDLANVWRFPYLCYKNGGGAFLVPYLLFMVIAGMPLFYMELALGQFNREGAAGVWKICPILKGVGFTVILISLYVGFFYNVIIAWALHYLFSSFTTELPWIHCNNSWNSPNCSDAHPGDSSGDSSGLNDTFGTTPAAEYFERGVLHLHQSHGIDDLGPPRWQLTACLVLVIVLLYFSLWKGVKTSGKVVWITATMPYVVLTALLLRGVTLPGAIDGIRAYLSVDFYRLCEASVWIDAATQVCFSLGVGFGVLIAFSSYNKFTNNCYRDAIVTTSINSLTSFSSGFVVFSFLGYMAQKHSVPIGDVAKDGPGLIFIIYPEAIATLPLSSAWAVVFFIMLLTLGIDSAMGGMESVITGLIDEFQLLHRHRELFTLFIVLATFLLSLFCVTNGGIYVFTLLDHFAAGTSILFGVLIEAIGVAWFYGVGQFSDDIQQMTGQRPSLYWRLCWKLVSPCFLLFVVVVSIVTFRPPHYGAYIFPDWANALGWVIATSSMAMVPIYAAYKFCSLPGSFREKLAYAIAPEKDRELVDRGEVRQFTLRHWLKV
Description: PDSP Primary Binding target: SLC6A3 - Compounds are tested at 10 uM concentration, plate are incubated at room temperature in the dark for 90 minutes. Reaction are stopped by vacuum filtration onto 0.3% polyethyleneimine soaked filter mats using Filtermate harvester. Scintilation cocktail is then melted onto microwave-dried filters on a hot plate and the radio activity is counted in Microbia counter.
Label yes when inhibition >= 30%; otherwise no.

{"Compound": "COc1ccc(C2(O)OC(=O)C(c3ccc4c(c3)OCO4)=C2Cc2cc(OC)c(OC)c(OC)c2)cc1 (stereo not given)", "Study system": "Sodium-dependent dopamine transporter (Homo sapiens) (UniProt Q01959)", "Category": "no"}
{"Compound": "Cc1c(C(=O)NC2CCCCC2)sc2nc3ccc(N)cc3n12", "Study system": "Sodium-dependent dopamine transporter (Homo sapiens) (UniProt Q01959)", "Category": "no"}

Threshold query (inhibition >= 30%) on CCCNS(=O)(=O)Nc1ncnc(OCCOc2ncc(Br)cn2)c1-c1ccc(Br)cc1
yes

Threshold query (inhibition >= 30%) on COc1ccc(OC(F)(F)F)cc1CN[C@H]1CCCN[C@H]1c1ccccc1
yes

Threshold query (inhibition >= 30%) on COc1ccc2cc(S(=O)(=O)N[C@H](CC(=O)N[C@H](Cc3ccc(CN4[C@H](C)CCC[C@@H]4C)cc3)C(=O)N(C)C(C)C)c3ccc4c(c3)OCO4)ccc2c1
yes

Threshold query (inhibition >= 30%) on CC(C)(C(=O)O)c1ccc(C(O)CCCN2CCC(C(O)(c3ccccc3)c3ccccc3)CC2)cc1 (stereo not given)
no

Threshold query (inhibition >= 30%) on N#Cc1c(O)nc(SCc2cccc(F)c2F)nc1C1CC1
yes
